Values compiled from patent US8889704B2.

Counter-ions that a name gives are not always drawn.
measuredProperty: pIC50
# pIC50 = -log10(concentration in molar units)

Fill in pIC50 for COCC(C)(COC)c1cccc2ccc(-c3nnc4ccc([C@@H](N5CC[C@H](N)C5)C(F)(F)F)cn34)nc12 [Example 110, dihydrochloride] tested with PIM-1 (Homo sapiens, UniProt P11309).
Sequence (P11309 whole entry, species assumed): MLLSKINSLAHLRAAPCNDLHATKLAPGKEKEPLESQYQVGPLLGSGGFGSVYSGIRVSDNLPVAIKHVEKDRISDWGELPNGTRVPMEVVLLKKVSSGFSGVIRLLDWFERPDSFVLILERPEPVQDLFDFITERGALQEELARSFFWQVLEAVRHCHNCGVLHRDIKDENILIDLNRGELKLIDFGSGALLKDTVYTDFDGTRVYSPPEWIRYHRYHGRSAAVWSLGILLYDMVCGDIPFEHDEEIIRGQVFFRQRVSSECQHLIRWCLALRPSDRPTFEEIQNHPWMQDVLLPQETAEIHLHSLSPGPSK
9.72

Fill in pIC50 for COc1ccc2ccc(-c3nnc4ccc([C@@H](N5CC[C@H](N)C5)C(F)(F)F)cn34)nc2c1 [Example 139, dihydrochloride] tested with PIM-1 (Homo sapiens, UniProt P11309).
9.24

Fill in pIC50 for C[C@]1(N)CCN([C@@H](c2ccc3nnc(-c4ccc5cccc(C6CC6)c5n4)n3c2)C(F)(F)F)C1 [Example 96, dihydrochloride] tested with PIM-1 (Homo sapiens, UniProt P11309).
9.92

Fill in pIC50 for N[C@@H]1CN([C@H](c2ccc3nnc(-c4ccc5cc(F)cc(C6CC6)c5n4)n3c2)C(F)(F)F)C[C@H]1O [Example 181, dihydrochloride] tested with PIM-1 (Homo sapiens, UniProt P11309).
9.39

Fill in pIC50 for Cc1cc(-c2cc3nc(-c4nnc5ccc([C@@H](N6CC[C@H](N)C6)C(F)(F)F)cn45)ccc3cc2F)n(C)n1 [Example 204, dihydrochloride] tested with PIM-1 (Homo sapiens, UniProt P11309).
9.32

Fill in pIC50 for CCOc1cc2nc(-c3nnc4ccc([C@@H](N5CC[C@@H](N)C5)C(F)(F)F)cn34)ccc2cc1F [Example 282, hydrochloride] tested with PIM-1 (Homo sapiens, UniProt P11309).
9.55

Fill in pIC50 for N[C@H]1CCN([C@H](c2ccc3nnc(-c4ccc5cccc(OCCO)c5n4)n3c2)C(F)(F)F)C1 [Example 219, dihydrochloride] tested with PIM-1 (Homo sapiens, UniProt P11309).
9.59

Fill in pIC50 for Cn1cc(-c2ccc3ccc(-c4nnc5ccc([C@H](N6CCC(C)(O)C6)C(F)(F)F)cn45)nc3c2)cn1 (single isomer, unassigned; diastereomer 1) [Example 200] tested with PIM-1 (Homo sapiens, UniProt P11309).
8.73

Fill in pIC50 for CC(C)Oc1cccc2ccc(-c3nnc4ccc([C@@H](N5CC[C@H](NCCO)C5)C(F)(F)F)cn34)nc12 [Example 101, dihydrochloride] tested with PIM-1 (Homo sapiens, UniProt P11309).
9.82

Fill in pIC50 for CC(C)(C)NC(=O)c1ccc2ccc(-c3nnc4ccc([C@@H](N5CC[C@@H](N)C5)C(F)(F)F)cn34)nc2c1 [Example 54, dihydrochloride] tested with PIM-1 (Homo sapiens, UniProt P11309).
9.39

Fill in pIC50 for CC(C)(C)c1cccc2ccc(-c3nnc4ccc([C@@H](N5CC[C@](N)(CO)C5)C(F)(F)F)cn34)nc12 [Example 189, dihydrochloride] tested with PIM-1 (Homo sapiens, UniProt P11309).
9.24

Fill in pIC50 for CC(C)Oc1cccc2ccc(-c3nnc4ccc([C@@H](N5CC[C@](N)(CF)C5)C(F)(F)F)cn34)nc12 (single isomer, unassigned) [Example 155, dihydrochloride] tested with PIM-1 (Homo sapiens, UniProt P11309).
9.47

Fill in pIC50 for COCCc1cccc2ccc(-c3nnc4ccc([C@@H](N5CC[C@H](N)C5)C(F)(F)F)cn34)nc12 [Example 111, dihydrochloride] tested with PIM-1 (Homo sapiens, UniProt P11309).
10.15

Fill in pIC50 for FC(F)(F)[C@H](c1ccc2nnc(-c3ccc4ccc(C5CC5)cc4n3)n2c1)N1C[C@@H]2C[C@H]1CN2 [Example 77, dihydrochloride] tested with PIM-1 (Homo sapiens, UniProt P11309).
9.80

Fill in pIC50 for COc1cc(F)cc2ccc(-c3nnc4ccc([C@@H](N5CC[C@@](C)(N)C5)C(F)(F)F)cn34)nc12 [Example 241, dihydrochloride] tested with PIM-1 (Homo sapiens, UniProt P11309).
8.59

Fill in pIC50 for CCOc1cc2nc(-c3nnc4ccc([C@H](N5CC[C@@H](CN)C5)C(F)(F)F)cn34)ccc2cc1F [Example 295, hydrochloride] tested with PIM-1 (Homo sapiens, UniProt P11309).
8.59

Fill in pIC50 for CC(C)Oc1cccc2ccc(-c3nnc4ccc([C@@H](N5C[C@@H](N)[C@H](O)C5)C(F)(F)F)cn34)nc12 [Example 146, dihydrochloride] tested with PIM-1 (Homo sapiens, UniProt P11309).
9.89

Fill in pIC50 for CC(C)(CCO)c1cccc2ccc(-c3nnc4ccc([C@@H](N5CC[C@H](N)C5)C(F)(F)F)cn34)nc12 [Example 224, dihydrochloride] tested with PIM-1 (Homo sapiens, UniProt P11309).
9.44

---

Structures can show the parent of a compound that is named as a salt.
measuredProperty: pIC50
# pIC50 = -log10(concentration in molar units)

Fill in pIC50 for CC(=O)OCCOc1cc2nc(-c3nnc4ccc([C@@H](N5CC[C@H](N)C5)C(F)(F)F)cn34)ccc2cc1F [Example 122, acetate hydrochloride] tested with PIM-1 (Homo sapiens, UniProt P11309).
9.70

Fill in pIC50 for CCOc1ccc2ccc(-c3nnc4ccc([C@@H](N5CC[C@H](N)C5)C(F)(F)F)cn34)nc2c1 [Example 255, dihydrochloride] tested with PIM-1 (Homo sapiens, UniProt P11309).
9.62

Fill in pIC50 for COc1ccc2ccc(-c3nnc4ccc([C@@H](N5CC[C@H](N)C5)C(F)(F)F)cn34)nc2c1C [Example 124, hydrochloride] tested with PIM-1 (Homo sapiens, UniProt P11309).
9.68

Fill in pIC50 for COCCOc1cc2nc(-c3nnc4ccc([C@H](N5CC[C@](C)(N)C5)C(F)(F)F)cn34)ccc2cc1F [Example 298, dihydrochloride] tested with PIM-1 (Homo sapiens, UniProt P11309).
9.57

Fill in pIC50 for Fc1ccc2ccc(-c3nnc4ccc([C@@H](N5C[C@@H]6C[C@H]5CN6)C(F)(F)F)cn34)nc2c1 [Example 63, dihydrochloride] tested with PIM-1 (Homo sapiens, UniProt P11309).
7.93

Fill in pIC50 for CC(C)(C#N)c1cccc2ccc(-c3nnc4ccc([C@@H](N5CC[C@H](N)C5)C(F)(F)F)cn34)nc12 [Example 99, dihydrochloride] tested with PIM-1 (Homo sapiens, UniProt P11309).
9.96

Fill in pIC50 for CC(C)C(=O)Nc1ccc2ccc(-c3nnc4ccc([C@@H](N5CC[C@H](N)C5)C(F)(F)F)cn34)nc2c1 tested with PIM-1 (Homo sapiens, UniProt P11309).
9.74

Fill in pIC50 for CCC1(N)CCN([C@@H](c2ccc3nnc(-c4ccc5cccc(OC)c5n4)n3c2)C(F)(F)F)C1 (single isomer, unassigned; diastereomer 2) [Example 244, dihydrochloride] tested with PIM-1 (Homo sapiens, UniProt P11309).
8.95

Fill in pIC50 for CC(C)Oc1ccc2ccc(-c3nnc4ccc([C@@H](N5CC[C@H](N)C5)C(F)(F)F)cn34)nc2c1 [Example 142, dihydrochloride] tested with PIM-1 (Homo sapiens, UniProt P11309).
10.05

Fill in pIC50 for COCCCOc1ccc2ccc(-c3nnc4ccc([C@@H](N5CC[C@H](N)C5)C(F)(F)F)cn34)nc2c1 [Example 275, dihydrochloride] tested with PIM-1 (Homo sapiens, UniProt P11309).
9.70

Fill in pIC50 for C[C@@H](c1ccc2nnc(-c3ccc4cccc(C(C)(C)C)c4n3)n2c1)N1CC[C@H](N)C1 [Example 308, trihydrochloride] tested with PIM-1 (Homo sapiens, UniProt P11309).
9.77

Fill in pIC50 for COc1cccc2ccc(-c3nnc4ccc([C@H](N5CC[C@](C)(N)C5)C(F)(F)F)cn34)nc12 [Example 217, dihydrochloride] tested with PIM-1 (Homo sapiens, UniProt P11309).
9.49

Fill in pIC50 for CC(C)Oc1cc(F)cc2ccc(-c3nnc4ccc([C@@H](N5C[C@@H](N)[C@H](O)C5)C(F)(F)F)cn34)nc12 [Example 147, dihydrochloride] tested with PIM-1 (Homo sapiens, UniProt P11309).
9.96

Fill in pIC50 for COCC(C)(C)Oc1cccc2ccc(-c3nnc4ccc([C@@H](N5CC[C@H](N)C5)C(F)(F)F)cn34)nc12 [Example 263, formate] tested with PIM-1 (Homo sapiens, UniProt P11309).
9.18

---

Where a name gives a salt, the structure may show the parent alone.
For each of the compounds below, state its pIC50.
# pIC50 = -log10(concentration in molar units)

Fill in pIC50 for FC(F)(F)C(c1ccc2nnc(-c3ccc4cccc(OCC5CC5)c4n3)n2c1)N1C[C@H]2C[C@@H]1CN2 (stereo partly shown) [Example 25, dihydrochloride] tested with PIM-1 (Homo sapiens).
9.10

Fill in pIC50 for N[C@H]1CCN([C@H](c2ccc3nnc(-c4ccc5cccc(F)c5n4)n3c2)C(F)(F)F)C1 [Example 168, dihydrochloride] tested with PIM-1 (Homo sapiens).
8.76

Fill in pIC50 for Cc1cnn(-c2ccc3ccc(-c4nnc5ccc([C@@H](N6CC[C@H](N)C6)C(F)(F)F)cn45)nc3c2C)c1 [Example 190, dihydrochloride] tested with PIM-1 (Homo sapiens).
8.99

Fill in pIC50 for COCCOc1ccc2cc(F)c(-c3nnc4ccc([C@@H](N5CC[C@H](N)C5)C(F)(F)F)cn34)nc2c1 tested with PIM-1 (Homo sapiens).
9.51

Fill in pIC50 for N[C@H]1CCN([C@H](c2ccc3nnc(-c4ccc5ccc(OC(F)(F)F)cc5n4)n3c2)C(F)(F)F)C1 [Example 239, dihydrochloride] tested with PIM-1 (Homo sapiens).
8.78

Fill in pIC50 for CN[C@H]1CCN([C@H](c2ccc3nnc(-c4ccc5ccc(C(=O)NC(C)C)cc5n4)n3c2)C(F)(F)F)C1 tested with PIM-1 (Homo sapiens).
9.35

Fill in pIC50 for CO[C@H](C)COc1cc(-c2nnc3ccc([C@@H](N4CC[C@H](N)C4)C(F)(F)F)cn23)nc2ccccc12 [Example 291, formate] tested with PIM-1 (Homo sapiens).
9.72
